Assay Notes: Cytotoxicity against human BT549 cells assessed as growth inhibition at 10 uM after 48 hrs by SRB assay
Assay type: functional
Condition: BT-549, 48 h, read-out: GI
Recorded Metric: inhibition of growth at 10 µM

-- ask Return reported inhibition of growth at 10 µM; argument: C=C1CC[C@@H]2[C@](C)(COC(C)=O)[C@H](OC(C)=O)CC[C@@]2(C)[C@@H]1CC(NCc1ccccc1)C1=CCOC1=O (mixture of isomers)
-- reply 71.9%

-- ask Fill blank: measured inhibition of growth at 10 µM of the compound C=C1CC[C@@H]2[C@](C)(COC(C)=O)[C@H](OC(C)=O)CC[C@@]2(C)[C@@H]1CC(NCCCCCCCC)C1=CCOC1=O (mixture of isomers) is ____.
-- reply 30.4%

-- ask Name the reported inhibition of growth at 10 µM value associated with the compound C=C1CC[C@@H]2[C@](C)(COC(C)=O)[C@H](OC(C)=O)CC[C@@]2(C)[C@@H]1C/C=C1/C(=O)OC[C@H]1OC(C)=O
-- reply 72.6%

-- ask What value of inhibition of growth at 10 µM has been recorded for this entry: C=C1CC[C@@H]2[C@](C)(COC(C)=O)[C@H](OC(C)=O)CC[C@@]2(C)[C@@H]1CC(NC1CCCC1)C1=CCOC1=O (stereo partly drawn)
-- reply 44.4%

###

Tested on: SR
Assay Notes: Cytotoxicity against human SR cells assessed as growth level at 10 uM after 48 hrs by SRB assay
Type: functional
Classify: condition met when Activity is strictly less than 10%; condition not met when Activity is not.

Worked set:
-- ask Dear reviewer, please state whether C=C1CC[C@@H]2[C@](C)(COC(C)=O)[C@H](OC(C)=O)CC[C@@]2(C)[C@@H]1CC(NCCCCCCCC)C1=CCOC1=O (mixture of isomers) has Activity strictly beneath 10%.
-- reply condition not met

-- ask Problem: For the compound C=C1CC[C@@H]2[C@](C)(COC(C)=O)[C@H](OC(C)=O)CC[C@@]2(C)[C@@H]1CC(NCc1cccc(Cl)c1)C1=CCOC1=O (mixture of isomers) , is Activity under 10%?
-- reply condition not met

-- ask For this compound, is Activity lower than 10%? C=C1CC[C@@H]2[C@](C)(COC(C)=O)[C@H](OC(C)=O)CC[C@@]2(C)[C@@H]1C/C=C1/C(=O)OC[C@H]1OC(C)=O
-- reply condition met

-- ask Problem: For the compound C=C1CC[C@@H]2[C@](C)(COC(C)=O)[C@H](OC(C)=O)CC[C@@]2(C)[C@@H]1CC(NCc1ccccc1)C1=CCOC1=O (mixture of isomers) , is Activity under 10%?
-- reply condition not met

-- ask Consider the compound C=C1CC[C@@H]2[C@](C)(COC(C)=O)[C@H](OC(C)=O)CC[C@@]2(C)[C@@H]1CC(Nc1ccc(S(=O)(=O)NC(C)=O)cc1)C1=CCOC1=O (mixture of isomers) . Is its Activity strictly less than 10%?
-- reply condition met

---
-- ask Identify whether the compound C=C1CC[C@@H]2[C@](C)(COC(C)=O)[C@H](OC(C)=O)CC[C@@]2(C)[C@@H]1CC(NCc1ccc(F)cc1)C1=CCOC1=O (mixture of isomers) records Activity below 10%.
-- reply condition met

-- ask is_below(Activity, 10%) for C=C1CC[C@@H]2[C@](C)(COC(C)=O)[C@H](OC(C)=O)CC[C@@]2(C)[C@@H]1CC(Sc1ccccc1)C1=CCOC1=O (mixture of isomers) ?
-- reply condition met

-- ask Does this compound meet the criterion Activity < 10%? C=C1CC[C@@H]2[C@](C)(COC(C)=O)[C@H](OC(C)=O)CC[C@@]2(C)[C@@H]1CC(NCCCCCCCCCCCCCCCCCC)C1=CCOC1=O (mixture of isomers)
-- reply condition not met

-- ask Strictly below 10%: is that where Activity of C=C1CC[C@@H]2[C@](C)(COC(C)=O)[C@H](OC(C)=O)CC[C@@]2(C)[C@@H]1CC(NC1CC1)C1=CCOC1=O (mixture of isomers) sits?
-- reply condition not met

-- ask Record C=C1CC[C@@H]2[C@](C)(COC(C)=O)[C@H](OC(C)=O)CC[C@@]2(C)[C@@H]1CC(NC1CCCC1)C1=CCOC1=O (some centres not stated) : is its Activity strictly below 10%?
-- reply condition not met

-- ask State whether 10% exceeds Activity recorded for C=C1CC[C@@H]2[C@](C)(COC(C)=O)[C@H](OC(C)=O)CC[C@@]2(C)[C@@H]1CC(NCCCC)C1=CCOC1=O (mixture of isomers) .
-- reply condition not met

-- ask Activity under 10%? Item: C=C1CC[C@@H]2[C@](C)(CO)[C@H](O)CC[C@@]2(C)[C@@H]1C/C=C1/C(=O)OC[C@H]1O [ANDROGRAPHOLIDE]
-- reply condition not met

###

Assay Notes: Cytotoxicity against human MOLT4 cells assessed as growth level at 10 uM after 48 hrs by SRB assay
Assay type: functional, MOLT-4
Quick reference: Activity of the listed items.
Entry rule: numbers only, all in %.

Previously resolved entries follow.
-- ask May I ask what Activity has been recorded for C=C1CC[C@@H]2[C@](C)(COC(C)=O)[C@H](OC(C)=O)CC[C@@]2(C)[C@@H]1CC(NC1CC1)C1=CCOC1=O (mixture of isomers) ?
-- reply 87.21

-- ask Please report the recorded Activity for C=C1CC[C@@H]2[C@](C)(COC(C)=O)[C@H](OC(C)=O)CC[C@@]2(C)[C@@H]1CC(NC1CCCC1)C1=CCOC1=O (stereo partly drawn) .
-- reply 42.41

Okay, now this compound:
-- ask Item under review: C=C1CC[C@@H]2[C@](C)(COC(C)=O)[C@H](OC(C)=O)CC[C@@]2(C)[C@@H]1CC(NCc1ccccc1)C1=CCOC1=O (mixture of isomers) . Reported Activity?
-- reply -3.86

###

Tested on: NCI-H460
Assay Notes: Cytotoxicity against human NCI-H460 cells assessed as growth level at 10 uM after 48 hrs by SRB assay
Format: functional
Class 1.0: Activity at least 60%. Class 0.0: Activity below 60%.

-- ask Is it the case that C=C1CC[C@@H]2[C@](C)(COC(C)=O)[C@H](OC(C)=O)CC[C@@]2(C)[C@@H]1CC(NCc1ccccc1)C1=CCOC1=O (mixture of isomers) has Activity reaching or exceeding 60%?
-- reply 0.0

-- ask Determine whether measured Activity meets or exceeds 60% for C=C1CC[C@@H]2[C@](C)(COC(C)=O)[C@H](OC(C)=O)CC[C@@]2(C)[C@@H]1CC(NCc1cccc(Cl)c1)C1=CCOC1=O (mixture of isomers)
-- reply 0.0

-- ask Please indicate if the recorded Activity for C=C1CC[C@@H]2[C@](C)(CO)[C@H](O)CC[C@@]2(C)[C@@H]1C/C=C1/C(=O)OC[C@H]1O [ANDROGRAPHOLIDE] meets or exceeds 60%.
-- reply 1.0

-- ask Given the entry C=C1CC[C@@H]2[C@](C)(COC(C)=O)[C@H](OC(C)=O)CC[C@@]2(C)[C@@H]1CC(NC1CCCC1)C1=CCOC1=O (some centres not stated) , answer whether its Activity meets or surpasses 60%.
-- reply 1.0

-- ask Is it the case that C=C1CC[C@@H]2[C@](C)(COC(C)=O)[C@H](OC(C)=O)CC[C@@]2(C)[C@@H]1CC(Sc1ccccc1)C1=CCOC1=O (mixture of isomers) has Activity reaching or exceeding 60%?
-- reply 0.0

Further cases:
-- ask Confirm if Activity reported for the compound C=C1CC[C@@H]2[C@](C)(COC(C)=O)[C@H](OC(C)=O)CC[C@@]2(C)[C@@H]1CC(Nc1ccc(S(=O)(=O)NC(C)=O)cc1)C1=CCOC1=O (mixture of isomers) is 60% or above.
-- reply 0.0

-- ask Confirm if Activity reported for the compound C=C1CC[C@@H]2[C@](C)(COC(C)=O)[C@H](OC(C)=O)CC[C@@]2(C)[C@@H]1C/C=C1/C(=O)OC[C@H]1OC(C)=O is 60% or above.
-- reply 1.0

-- ask Is the recorded value of Activity equal to or greater than 60% for this compound? C=C1CC[C@@H]2[C@](C)(COC(C)=O)[C@H](OC(C)=O)CC[C@@]2(C)[C@@H]1CC(NCCCCCCCCCCCCCCCCCC)C1=CCOC1=O (mixture of isomers)
-- reply 1.0

-- ask Determine whether this compound has Activity no lower than 60%: C=C1CC[C@@H]2[C@](C)(COC(C)=O)[C@H](OC(C)=O)CC[C@@]2(C)[C@@H]1CC(NC1CC1)C1=CCOC1=O (mixture of isomers)
-- reply 1.0

-- ask Decide: Activity of C=C1CC[C@@H]2[C@](C)(COC(C)=O)[C@H](OC(C)=O)CC[C@@]2(C)[C@@H]1CC(NCc1ccc(F)cc1)C1=CCOC1=O (mixture of isomers) >= 60%?
-- reply 0.0

-- ask Reported Activity at or above 60%? C=C1CC[C@@H]2[C@](C)(COC(C)=O)[C@H](OC(C)=O)CC[C@@]2(C)[C@@H]1CC(NCCCCCCCC)C1=CCOC1=O (mixture of isomers)
-- reply 0.0

-- ask Is reported Activity greater than or equal to 60% here: C=C1CC[C@@H]2[C@](C)(COC(C)=O)[C@H](OC(C)=O)CC[C@@]2(C)[C@@H]1CC(NCCCC)C1=CCOC1=O (mixture of isomers)
-- reply 1.0

The measurements presented in this section are drawn from ChEMBL document CHEMBL3734705.
